Each item that follows carries a reported pIC50.
# assaySystem: IDH1 R132H (Homo sapiens, UniProt O75874, R132H)
# Sequence (O75874 whole entry R132H): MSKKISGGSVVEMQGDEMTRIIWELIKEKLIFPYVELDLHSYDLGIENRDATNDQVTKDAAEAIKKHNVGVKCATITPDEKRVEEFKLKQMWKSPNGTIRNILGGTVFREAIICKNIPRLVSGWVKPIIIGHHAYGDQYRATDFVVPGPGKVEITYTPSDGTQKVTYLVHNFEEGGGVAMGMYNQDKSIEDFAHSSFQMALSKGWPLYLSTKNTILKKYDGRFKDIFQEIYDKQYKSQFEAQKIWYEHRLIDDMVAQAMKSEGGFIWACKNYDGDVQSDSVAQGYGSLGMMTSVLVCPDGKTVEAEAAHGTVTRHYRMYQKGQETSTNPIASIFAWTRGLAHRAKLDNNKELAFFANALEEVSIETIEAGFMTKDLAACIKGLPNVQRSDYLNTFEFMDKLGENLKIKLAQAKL
# testMethodNotes: IDH1 R132H enzymatic assay (NADPH depletion coupled to diaphorase/resazurin)
# Type: biochemical
# testParameters: IDH1 R132H enzymatic inhibition, IC50 class
pIC50: −log10 of the molar value.

CCc1cccc(CC)c1-n1c2c(cc(-c3nc(-c4cccc(Cl)c4)cs3)c1=O)C(=O)CC(C)(C)C2 [Compound 205]; < 4.70

Task: Determine from records and report pIC50 for Cc1cccc(CN2CCN(C)CC2)c1-n1c2c(cc(-c3nc(-c4ccc(Cl)cc4)cs3)c1=O)C(=O)CC(C)(C)C2 [Compound 17]
Result: 4.70 to 5.30

Task: Report measured pIC50; entry is CCc1cccc(CC)c1-n1c(C)c(C(=O)N2CCN[C@@H](C(=O)O)C2)cc(-c2nc(-c3ccc(Cl)cc3)cs2)c1=O [Compound 21]
Result: 6.00 to 6.52

Task: // fetch pIC50 given entry CCc1cccc(CC)c1-n1c(CC(C)C)c(C(=O)N2CCNCC2)cc(-c2nc(-c3ccc(Cl)cc3)c(C(=O)OC)s2)c1=O [Compound 387]
Result: > 6.52

Task: Please list pIC50 recorded for the compound CCc1ncc(F)cc1-n1c(C=C(C)C)c(C(=O)N2CCNCC2)cc(-c2nc(-c3ccc(C(F)(F)F)cc3)cs2)c1=O [Compound 328]
Result: > 6.52
